assay: Tmax in rat plasma; type: ADME, cell-free
Measured metric: Tmax
Don't forget the unit after the value.

Read off the recorded Tmax for CC1(C)CC[C@]2(C(=O)O)CC[C@]3(C)C(=CC[C@@H]4[C@@]5(C)CC[C@H](O)[C@@](C)(CO)[C@@H]5CC[C@]43C)[C@@H]2C1 [HEDERAGENIN] 18.3 min

---

assay: Cytotoxicity against mouse L929 cells assessed as reduction in cell viability; type: toxicity, cell-based
Measured metric: pIC50
Recall that pIC50 is obtained by taking minus log10 of the concentration measured in molar.

Annotate the compound COC(=O)[C@]12CCC(C)(C)C[C@H]1C1/C(=N/O)C[C@@H]3[C@@]4(C)CC[C@H](OC(C)=O)[C@@](C)(COC(C)=O)[C@@H]4CC[C@@]3(C)[C@]1(C)CC2 (stereo partly specified) with its measured pIC50. 4.67

---

test system: A-431; experiment: Cytotoxicity against human A-431 cells assessed as reduction in cell viability measured after 72 hrs by MTT assay; assay type: functional, cell-based; conditions: A-431, 72 h
Measured metric: pEC50
In simple prose, pEC50 is minus the logarithm base ten of a concentration in moles per litre.

Give me measured pEC50, please, for this compound: COC(=O)[C@]12CCC(C)(C)C[C@H]1C1=CC[C@@H]3[C@@]4(C)C=C(C#N)C(=O)[C@@](C)(CO)[C@@H]4CC[C@@]3(C)[C@]1(C)CC2 5.77

---

test system: HT-1080; assay: Cytotoxicity against human HT-1080 cells assessed as reduction in cell viability measured after 72 hrs by MTT assay; format: functional, cell-based; settings: HT-1080, 72 h
Measured metric: pEC50
Interpret pEC50 as the negative base-10 log of the concentration measured in mol/L.

Query pEC50 for COC(=O)[C@]12CCC(C)(C)C[C@H]1C1=CC[C@@H]3[C@@]4(C)C=C(C#N)C(=O)[C@@](C)(CO)[C@@H]4CC[C@@]3(C)[C@]1(C)CC2 5.52

---

tested on: Leishmania mexicana; test: Antileishmanial activity against Leishmania mexicana amastigotes assessed as effective dose; conditions: read-out: ED50 (the source's name)
Task for the reader: assign each of the following molecules its reported EC50.
Lab book: enter the figure in µM, no units written.

Consider the molecule CC1(C)CC[C@]2(C(=O)O)CC[C@]3(C)C(=CC[C@@H]4[C@@]5(C)CC[C@@H]6O[C@H](c7ccccc7)OC[C@@]6(C)[C@@H]5CC[C@]43C)[C@@H]2C1 . State its measured EC50. 10

Give the reported EC50 for this molecule. CC(=O)OC[C@H](OC(C)=O)[C@H](OC(C)=O)[C@@H](OC(C)=O)[C@@H]1OC[C@@]2(C)[C@@H]3CC[C@]4(C)[C@H](CC=C5[C@@H]6CC(C)(C)CC[C@]6(C(=O)O)CC[C@]54C)[C@@]3(C)CC[C@@H]2O1 7.2

Quote EC50 reported for CC1(C)CC[C@]2(C(=O)OCc3ccccc3)CC[C@]3(C)C(=CC[C@@H]4[C@@]5(C)CC[C@@H]6O[C@H]([C@H]7O[C@H](O)[C@H](O)[C@@H](O)[C@@H]7O)OC[C@@]6(C)[C@@H]5CC[C@]43C)[C@@H]2C1 please. 6

Entry CC1(C)CC[C@]2(C(=O)O)CC[C@]3(C)C(=CC[C@@H]4[C@@]5(C)CC[C@H](O)[C@@](C)(C=O)[C@@H]5CC[C@]43C)[C@@H]2C1 needs its EC50 filled in; supply it. 9.6

Using known records, supply EC50 for COC(=O)[C@]12CCC(C)(C)C[C@H]1C1=CC[C@@H]3[C@@]4(C)CC[C@@H]5O[C@H](c6ccccc6)OC[C@@]5(C)[C@@H]4CC[C@@]3(C)[C@]1(C)CC2 2.9

meta.source: ChEMBL document CHEMBL5356944
